- Tested on: MCF7 breast
- protocol summary: NCI tumour cell line growth inhibition, 48 h
measured endpoint: TGI

CCCCOC(=O)c1ccc(N)cc1 > 100 µM

For the compound COc1ccc(C#Cc2ccc(=O)oc2-c2cc(OC)c(OC)c(OC)c2)cc1O , what TGI is on record?
> 100 µM

For the compound C[C@H]1/C(=C/C(=O)OCCN(C)C)CC[C@H]2[C@H]1C(=O)C[C@H]1C(C)(C)[C@@H](O)CC[C@]21C , what TGI is on record?
> 100 µM

----------
Entries annotated with measured TGI
- Test system: OVCAR-8 ovarian
- protocol summary: NCI tumour cell line growth inhibition, 48 h

Below, each entry is followed by its recorded TGI result.
compound	target desc	TGI
CCCCCOCC(O)CO (stereo not drawn)	OVCAR-8 ovarian	> 100 µM
CCOC(=O)C(=O)C=P(c1ccccc1)(c1ccccc1)c1ccccc1	OVCAR-8 ovarian	> 100 µM
CCOC(=O)Cn1c2ccccc2c(=O)c2cc(C)c(C)c(C#N)c21	OVCAR-8 ovarian	> 100 µM

Test system OVCAR-8 ovarian; read-out TGI; what value for CN(C)c1ccc(/C=C/c2ccc(S(N)(=O)=O)cc2)cc1 ?
27.5 µM

Test system OVCAR-8 ovarian; read-out TGI; what value for Cc1cccc(Br)[n+]1[O-] ?
> 100 µM

Test system OVCAR-8 ovarian; read-out TGI; what value for COc1ccccc1Cc1ccc(C2C=CC3(CC(=O)C=C3C)C(=O)C2)o1 (stereo not drawn) ?
37.1 µM

Test system OVCAR-8 ovarian; read-out TGI; what value for COC(=O)c1ccccc1N(C(=O)c1ccccc1)c1ccccc1C ?
> 100 µM

Test system OVCAR-8 ovarian; read-out TGI; what value for COc1cc(Oc2c(C)c(Cl)c(OC)c(Cl)c2OC)c2c(c1Cl)COC2=O ?
> 100 µM

----------
- Test system: SK-MEL-28 melanoma
- protocol summary: NCI tumour cell line growth inhibition, 48 h
measured endpoint: TGI

compound	measured endpoint	reading
S=C(N/N=C(\c1ccccc1)c1ccccn1)NC1CCCCC1	TGI	> 100 µM

For the compound C=C1CC2(CC(c3ccccc3Cl)OC(c3ccccc3Cl)C2)OC1=O (stereo not drawn) , what TGI is on record?
3.65 µM

For the compound COc1ccc(C=Nc2c(C(=O)Nc3cccc(Cl)c3C)sc3nc(C)c(C(=O)/C=C/c4ccc(OC)cc4)cc23)cc1 , what TGI is on record?
> 50 µM

For the compound CCOC(=O)CC1COc2ccc3c(c21)OCO3 (stereo not drawn) , what TGI is on record?
> 100 µM

For the compound COCCN(CCNC(=O)c1cccc2c(N)c3cccc(C)c3nc12)CCOC , what TGI is on record?
> 41.1 µM

For the compound COc1ccc(/C(=N\NC(=O)NN)C(c2ccc(OC)cc2)C2(O)C(=O)Nc3c(Cl)cc(Cl)cc32)cc1 (stereo not drawn) , what TGI is on record?
> 100 µM

For the compound C[C@]12CCC(=O)C(OC(=O)c3ccc([N+](=O)[O-])cc3)=C1CCC2=O , what TGI is on record?
> 100 µM

----------
Entries annotated with measured TGI
- System: K-562 leukemia
- protocol summary: NCI tumour cell line growth inhibition, 48 h

molecule	TGI
Cc1c2ccn(O)cc2c(C)c2c1nc1ccccc12	> 81.4 µM
CSC(=NC#N)S/C=C/C(=O)c1ccccc1	> 100 µM

For the molecule COC(=O)C1CCC(=S)N1C(=O)OCc1ccccc1 (stereo not drawn) , what TGI is on record?
> 100 µM
